The values you see were collected from patent US20080275058A1.

target.desc: Human serotonin 5-HT6 receptor (Homo sapiens)
Construct: made in house; host or cells: insect Sf21 cells (baculovirus vector BacPAK8)
Sequence (P50406 whole entry): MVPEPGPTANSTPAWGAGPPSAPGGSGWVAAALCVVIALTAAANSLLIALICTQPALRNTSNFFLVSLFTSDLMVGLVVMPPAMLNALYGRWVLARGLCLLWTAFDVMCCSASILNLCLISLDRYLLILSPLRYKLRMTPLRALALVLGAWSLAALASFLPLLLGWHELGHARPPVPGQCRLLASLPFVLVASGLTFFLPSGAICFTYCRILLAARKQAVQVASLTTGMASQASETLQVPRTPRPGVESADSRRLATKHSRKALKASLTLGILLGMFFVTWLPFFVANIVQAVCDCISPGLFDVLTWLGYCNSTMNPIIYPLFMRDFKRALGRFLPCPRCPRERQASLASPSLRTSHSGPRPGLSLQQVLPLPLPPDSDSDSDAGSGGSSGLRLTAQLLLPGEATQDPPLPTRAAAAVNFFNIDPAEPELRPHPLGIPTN
test: [3H]LSD binding assay on cloned 5-HT6 receptor membranes
recorded.conditions: Table 4; read-out: Binding affinity, IC50 (nM) 5-HT6
measured.property: IC50 (nM)
Reply numerically in nM, unit not repeated.

IC50 measured on COc1ccc(C2(C)C(=O)c3c(N4CCNCC4)cc(Cl)cc3N(Cc3ccc(-c4ccccc4)cc3)C2=O)cc1 (stereo not shown) = 15.5

IC50 measured on COc1ccc(C2(C)C(=O)c3c(N4CCN(C)CC4)cc(Cl)cc3N(Cc3ccccc3)C2=O)cc1 (stereo not shown) = 1.9

IC50 measured on CN1CCN(c2cc(Cl)cc3c2C(=O)C(C)(c2ccc([N+](=O)[O-])cc2)C(=O)N3Cc2ccccc2)CC1 (stereo not shown) = 4.7

IC50 measured on COc1ccc(C2(C)C(=O)c3c(N4CCNCC4)cc(Cl)cc3N(Cc3cccc(N)c3)C2=O)cc1 (stereo not shown) = 15.9

---

Assignment: determine reported IC50 for the given compounds.
target.desc: hD2L (Homo sapiens, UniProt P14416)
Construct: purchased BioSignal Packard Inc., Montreal, Canada
Sequence (P14416 whole entry): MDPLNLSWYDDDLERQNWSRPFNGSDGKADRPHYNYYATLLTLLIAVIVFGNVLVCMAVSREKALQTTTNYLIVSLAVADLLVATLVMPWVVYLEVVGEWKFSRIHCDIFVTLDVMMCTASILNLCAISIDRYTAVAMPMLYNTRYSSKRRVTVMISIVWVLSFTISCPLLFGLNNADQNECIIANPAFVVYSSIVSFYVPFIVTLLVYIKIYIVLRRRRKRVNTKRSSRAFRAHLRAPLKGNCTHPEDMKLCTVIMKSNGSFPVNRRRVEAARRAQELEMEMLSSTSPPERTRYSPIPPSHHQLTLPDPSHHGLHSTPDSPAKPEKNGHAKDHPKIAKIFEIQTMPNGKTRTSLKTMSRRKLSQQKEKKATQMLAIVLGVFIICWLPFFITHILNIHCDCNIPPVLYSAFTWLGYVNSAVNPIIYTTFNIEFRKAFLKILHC
test: Radioligand binding, dopamine D2 ([3H]spiperone)
recorded.conditions: Table 4; [3H]spiperone 1 nM; read-out: Binding affinity, IC50 (nM) D2
Description: 2-2: Binding assays of Dopamine Receptor Family The radioligands used were [^3H] spiperone (for hD2L and hD3 receptors, 1 nM) and [^3H] YM-09151-2 (for hD4.2 receptor, 0.06 nM). […] Competition binding studies were carried out with 7-8 concentrations of the test compound run in duplicate tubes, and isotherms from three assays were calculated by computerized nonlinear regression analysis (GraphPad Prism Program, San Diego, […]) to yield median inhibitory concentration (IC50) values.

IC50 measured on COc1cccc(C2(C)C(=O)c3c(N4CCNCC4)cc(Cl)cc3N(Cc3ccccc3)C2=O)c1 (stereo not shown) = 7190 nM

IC50 measured on CC1(c2ccc(O)cc2)C(=O)c2c(N3CCNCC3)cc(Cl)cc2N(Cc2cccc(O)c2)C1=O (stereo not shown) = > 10000 nM

IC50 measured on CC1(c2ccc(O)cc2)C(=O)c2c(N3CCNCC3)cc(Cl)cc2N(Cc2ccc(O)cc2)C1=O (stereo not shown) = 6960 nM

IC50 measured on COc1ccc(C2(C)C(=O)c3c(N4CCNCC4)cc(Cl)cc3N(Cc3ccccc3Br)C2=O)cc1 (stereo not shown) = 7150 nM

IC50 measured on CN1CCN(c2cc(Cl)cc3c2C(=O)C(C)(c2ccc(O)cc2)C(=O)N3Cc2cccc(N)c2)CC1 (stereo not shown) = > 10000 nM

IC50 measured on CC1(c2ccc([N+](=O)[O-])cc2)C(=O)c2c(N3CCNCC3)cc(Cl)cc2N(Cc2ccccc2)C1=O (stereo not shown) = 6660 nM

IC50 measured on COc1ccc(C2(C)C(=O)c3c(N4CCNCC4)cc(Cl)cc3N(Cc3cccc(Br)c3)C2=O)cc1 (stereo not shown) = > 1000 nM

---

target.desc: 5-HT1a (Homo sapiens)
Construct: purchased Euroscreen/BioSignal Packard Inc
Sequence (P08908 1-422): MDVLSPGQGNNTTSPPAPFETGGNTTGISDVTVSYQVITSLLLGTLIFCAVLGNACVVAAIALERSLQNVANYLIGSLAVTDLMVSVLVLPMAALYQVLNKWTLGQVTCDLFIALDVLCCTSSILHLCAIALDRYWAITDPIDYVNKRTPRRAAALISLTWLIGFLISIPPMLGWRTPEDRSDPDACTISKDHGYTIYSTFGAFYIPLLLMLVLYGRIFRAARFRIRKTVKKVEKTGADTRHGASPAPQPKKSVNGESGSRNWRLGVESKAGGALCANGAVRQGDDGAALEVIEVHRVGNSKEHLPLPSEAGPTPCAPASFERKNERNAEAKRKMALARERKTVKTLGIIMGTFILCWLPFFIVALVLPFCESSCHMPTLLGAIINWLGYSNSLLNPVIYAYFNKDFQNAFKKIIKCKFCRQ
test: Radioligand binding, 5-HT1a ([3H]8-OH-DPAT)
recorded.conditions: Table 4; [3H]8-OH-DPAT 0.5 nM; read-out: Binding affinity, IC50 (nM) 5-HT1a
Assignment: determine reported IC50 for the given molecules.

IC50 on 5-HT1a (Homo sapiens) for CC1(c2ccc(O)cc2)C(=O)c2c(N3CCNCC3)cc(Cl)cc2N(Cc2cccc(O)c2)C1=O (stereo not drawn) [Example 28] is > 10000 nM

IC50 on 5-HT1a (Homo sapiens) for CN1CCN(c2cc(Cl)cc3c2C(=O)C(C)(c2ccc(O)cc2)C(=O)N3Cc2cccc(N)c2)CC1 (stereo not drawn) [Example 10] is > 10000 nM

IC50 on 5-HT1a (Homo sapiens) for COc1ccc(C2(C)C(=O)c3c(N4CCNCC4)cc(Cl)cc3N(Cc3cccc(OC)c3)C2=O)cc1 (stereo not drawn) [Example 27] is > 10000 nM
